The measured values listed here are drawn from patent US8952024B2.

- Test system: morningglory (Ipomoea coccinea)
- PROCEDURE_DETAILS: Test B pre-/postemergence plant response
- Format: in vivo
- ASSAY_CONTEXT: Postemergence, 125 g ai/ha; scale 0 to 100 (0 no effect, 100 complete control)
The entries below come with measured Plant response rating, Morningglory values attached.

{"MOLECULE": "CCc1ccc(-n2c(-c3ccccc3)ncc(C(=O)C3=C(O)CCCC3=O)c2=O)cc1", "Plant response rating, Morningglory": 100}
{"MOLECULE": "COCCCn1c(-c2cccc(Br)c2)ncc(C(=O)C2=C(O)CCCC2=O)c1=O", "Plant response rating, Morningglory": 65}
{"MOLECULE": "CCCn1c(-c2ccsc2)ncc(C(=O)C2=C(O)C3CCC(C3)C2=O)c1=O (stereo not shown)", "Plant response rating, Morningglory": 100}
{"MOLECULE": "Cc1ccc(Cl)cc1-n1c(-c2cccc(F)c2)ncc(C(=O)C2=C(O)CCCC2=O)c1=O", "Plant response rating, Morningglory": 100}
